Data origin: paper PMC9306752

Biological target: SARS-CoV-2 RdRp complex (Nsp7, Nsp8, Nsp12) (Severe acute respiratory syndrome coronavirus 2)
Test: biochemical
Details: full template-length RNA product
quantity.kind: IC50
Put down the number, then write its unit next to it.

Recorded results for 4 compounds are shown here.
- smiles.notation: "CC(C)=CCC/C(C)=C/CC/C(C)=C/Cn1c[n+](C/C=C(\\C)CC/C=C(\\C)CCC=C(C)C)c2cc(C)c(C)cc21"
  quantity.kind: "IC50"
  experimental.result: "3.5 µM"
- smiles.notation: "CC(C)=CCC/C(C)=C/CC/C(C)=C/Cn1c(/C=C(\\C)CC/C=C(\\C)CCC=C(C)C)nc2cc(C)c(C)cc21"
  quantity.kind: "IC50"
  experimental.result: "108 µM"
- smiles.notation: "CC(C)=CCC/C(C)=C/CC/C(C)=C/Cn1cnc2cc(C)c(C)cc21"
  quantity.kind: "IC50"
  experimental.result: "85 µM"
- smiles.notation: "CC(C)=CCC/C(C)=C/CC/C(C)=C/Cn1c(C)nc2cc(C)c(C)cc21"
  quantity.kind: "IC50"
  experimental.result: "43 µM"

Shift focus to the following entry.
Req: Consider the compound shown here: CC(C)=CCC/C(C)=C/CC/C(C)=C/Cn1c(C)[n+](C/C=C(\C)CC/C=C(\C)CCC=C(C)C)c2cc(C)c(C)cc21 What is its recorded IC50?
Resp: 6.8 µM
